Experimental Target: SARS-CoV-2 prefusion stabilized trimer protein (WIV02 isolate spike protein) (UniProt P0DTC2 14-1213)
Protocol Details: ELISA
Property Measured: pEC50
Answers are plain numbers, as −log10 of the molar value.

The examples below pair each entry with its known result.
[
  {
    "Binder": "2-G20-A (antibody, V domains shown) VH: EVQLQQSGPELVKPGASVKMSCKASGYTFPSYVLHWVKQKPGQGLEWIGYIYPYNDGTNYNEKFKGKATLTSDKSSSTAYMELSSLTSEDSAVYYCARGDYGDSAWFPYWGQGTLVTVSA VL: DIVLTQSPASLAVSLGQRATISCRASKSVSTSGYSYMHWYQQKPGQPPKLLIYLASNLKSGVPARFSGGGSGTDFTLNIHPVEEEDAATYYCQLSRELPWTFGGGTKLEIK",
    "Obs Value": 8.74
  },
  {
    "Binder": "8-L17-A (antibody, V domains shown) VH: EVQLVESGGGLVQPKGSLKLSCAASGFTFNTYAMHWVRQAPGKGLEWVARIRSKSSNYARYYADSVKDRFTISRDDSQSMLYLQMNNLKTEDTAMYYCVRDHDYYGSSYWFAYWGQGTLVTVSA VL: DVVMTQTPLSLPVSLGDQASISCRSSQSLVHNNGNTYLHWYLQKPGQSPKLLIYKVSNRFSGVPDRFSGSGSGTDFTLKISRVEAEDLGVYFCSQSTHVPWTFGGGTKLEIK",
    "Obs Value": 9.57
  }
]

[Q] So what's the measured pEC50 for this one? 10-O3-A (antibody, V domains shown) VH: QVQLKESGPGLVAPSQSLSITCTVSGFSLTNYAVHWVRQSPGKGLEWLGVIWSDGRTDYNAAFISRLSISKDNSKSQVFFKMNSLQADDTAIYYCVRIEGGSYVGWYFDVWGAGTTVTVSS VL: DIQMTQSPSSLSASLGGTVTITCKASQDINKFIAWYQHKPGKGPRLLIHYTSTLQPGIPSRFSGSGSGRDYSFSISNLEPEDIATYYCLQYDNLLTFGAGTKLELK
[A] 8.46

src = patent US20240239875A1
